- Tested on: Plasmodium falciparum
- measurement.notes: Antimalarial activity against Plasmodium falciparum 3D7 infected in O positive erythrocytes assessed as parasite lactate dehydrogenase activity after 72 hrs
- Assay type: functional, organism-based
- assay.conditions: 3D7, 72 h
Form field: IC50 (one value per entry).
recorded.endpoint: IC50 (µM)

- CCOP(=O)(NC(C)C)Oc1ccc(C(F)(F)F)cn1 (configuration not stated): 25
- CCOP(=O)(NC(C)C)Oc1ccc2ccccc2c1[N+](=O)[O-] (configuration not stated): 98
- CC(C)CNP1(=S)OCc2cc([N+](=O)[O-])ccc2O1 (configuration not stated): 118
- CCOP(=O)(NC(C)C)Oc1cc(O)ccn1 (configuration not stated): 128
- CCOP(=O)(NC1CCCC1)Oc1ccc(C(F)(F)F)cn1 (configuration not stated): 23
- FC(F)(F)c1ccc(OP2(=S)NCCCO2)cc1 (configuration not stated): 62
- FC(F)(F)c1ccc(OP2(=S)OCCS2)cc1 (configuration not stated): 64
- Cc1ccc([N+](=O)[O-])cc1OP1(=S)NCCO1 (configuration not stated): 24
- Cc1cc([N+](=O)[O-])ccc1OP1(=S)NCCO1 (configuration not stated): 51
- CCOP(=S)(NC(C)C)Oc1ccc(C(F)(F)F)cn1 (configuration not stated): 29
- CCOP(=O)(NC(C)C)Oc1nccc(C)c1[N+](=O)[O-] (configuration not stated): 128

---

- Test system: Plasmodium falciparum
- measurement.notes: Antimalarial activity against Plasmodium falciparum 3D7 infected in O positive erythrocytes assessed as parasite lactate dehydrogenase activity after 72 hrs
- Format: functional, organism-based
- assay.conditions: 3D7, 72 h
recorded.endpoint: IC50 (µM)

* Cc1ccc(OP2(=S)NC(C)CO2)c([N+](=O)[O-])c1 (mixture of isomers) | 77
* CCOP(=S)(NC1CCCC1)Oc1cccc2cccnc12 (configuration not stated) | 25
* CC(C)CNP1(=S)OCc2ccccc2O1 (configuration not stated) | 58
* CC(C)NP1(=S)OCc2cc([N+](=O)[O-])ccc2O1 (configuration not stated) | 108
* CCOP(=S)(NC1CCCC1)Oc1ccc2ncccc2c1 (configuration not stated) | 19
* CCOP(=O)(NC(C)C)Oc1ccc2ccccc2c1 (configuration not stated) | 87

---

Collected log10 of IC50 values appear next to each entry.
- Test system: Plasmodium falciparum
- measurement.notes: Antimalarial activity against Plasmodium falciparum 3D7 infected in O positive erythrocytes assessed as parasite lactate dehydrogenase activity after 72 hrs
- Type: functional, organism-based
- assay.conditions: 3D7, 72 h
recorded.endpoint: log10 of IC50 (log10 of the value in µM)

* FC(F)(F)c1ccc(OP2(=S)NCCO2)cc1 (configuration not stated) | 2.03
* CCCNP1(=S)OCc2ccccc2O1 (configuration not stated) | 1.98
* Cc1ccc([N+](=O)[O-])cc1OP1(=S)NCCCO1 (configuration not stated) | 2.03
* CC(C)NP1(=S)OCc2ccccc2O1 (configuration not stated) | 1.79
* CCOP(=O)(NC(C)C)Oc1cc(C)c([N+](=O)[O-])cn1 (configuration not stated) | 1.40
* CCOP(=S)(NCCCCNc1ccnc2cc(Cl)ccc12)Oc1ccc(C(F)(F)F)cc1 (configuration not stated) | -1.42
* NCCCCNc1ccnc2cc(Cl)ccc12 | -0.19
* CCOP(=O)(NC(C)C)Oc1cc(C)ccn1 (configuration not stated) | 2.11
* Cc1cc([N+](=O)[O-])ccc1OP1(=S)NCCCO1 (configuration not stated) | 2.11

---

- Tested on: Plasmodium falciparum
- measurement.notes: Antimalarial activity against Plasmodium falciparum 3D7 infected in O positive erythrocytes assessed as parasite lactate dehydrogenase activity after 72 hrs
- Type: functional, organism-based
- assay.conditions: 3D7, 72 h
IC50: recorded values
recorded.endpoint: IC50

- CC1COP(=S)(Oc2ccc(C(F)(F)F)cc2)N1 (racemic): > 128 µM
- Cc1cc2c(c([N+](=O)[O-])c1)OP(=S)(NC(C)C)OC2 (stereo not drawn): > 128 µM
- Cc1ccc([N+](=O)[O-])c(OP2(=S)NCCCO2)c1 (stereo not drawn): > 128 µM
